- System: ACHN
- method summary: NCI tumour cell line growth inhibition, 48 h
Activity calls are given as the source filed them. Rule as the data show it: active = GI50 up to about 1.1 µM and inactive = higher.
Each record here notes measured GI50.

Input: Return reported GI50; argument: `COC(=O)/C=C/c1cc(OC)c(OC)c(OC)c1`
Output: > 100 µM (inactive)

Input: Now try N#Cc1cc2c(n(C3OC(CO)C(O)C(O)C3O)c1=S)CCCCC2 (stereo not drawn) .
Output: > 100 µM (inactive)

Input: Now try `COc1ccc(-n2c(=O)[nH]n(C(C)=O)c2=O)cc1` .
Output: > 100 µM (inactive)

====

- Tested on: T47D
- method summary: NCI tumour cell line growth inhibition, 48 h
Calls of active or inactive are those of the source. Rule as the data show it: active = GI50 up to about 1.1 µM and inactive = higher.
Returns: one label drawn from active, inactive

Input: Entry `COc1ccc2c(c1)CCN=C2c1ccccc1CCCCl` : call = ?
Output: inactive

Taken from ChEMBL document CHEMBL1201862.
